# target.or.test.system: OR2W1 (Homo sapiens, UniProt Q9Y3N9)
# Construct: expressed in transfected cells; host or cells: HEK293
# Sequence (Q9Y3N9 1-320): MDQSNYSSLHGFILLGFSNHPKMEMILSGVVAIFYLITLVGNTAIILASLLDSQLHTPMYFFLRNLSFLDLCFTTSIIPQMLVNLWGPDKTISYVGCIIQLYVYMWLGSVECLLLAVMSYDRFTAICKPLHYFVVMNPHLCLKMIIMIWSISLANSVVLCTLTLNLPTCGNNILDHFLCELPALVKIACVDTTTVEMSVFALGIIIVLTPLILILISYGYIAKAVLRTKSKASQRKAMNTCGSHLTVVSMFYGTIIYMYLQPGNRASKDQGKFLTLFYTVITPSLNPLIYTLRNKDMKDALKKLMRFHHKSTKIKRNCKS
# protocol.text: Luciferase reporter gene assay of OR2W1 expressing HEK293 cells
# Type: cell-based
# Text: Based on the sequence information registered in GenEank, genes encoding 427 human olfactory receptors including variants were each cloned. Each gene was cloned by PCR using human genomic DNA female (G1521: Promega) as the template. Each gene amplified by PCR was recombined downstream of a Flag-Rho tag sequence on a pME18S vector. A gene encoding human RTP1S was inserted into the EcoRI/XhoI site of a pME18S vector. […]
endpoint.label: response of OR2W1 expressing cells

| sample.smiles | assay.value |
| --- | --- |
| N[C@@H](Cc1c[nH]cn1)C(=O)O | did not respond |
| CCCCCCC(C=O)=Cc1ccccc1 | did not respond |

Source of measurements: patent US20190367963A1
